All values here come from patent US20230365662A1.

Hi there, I'd appreciate the recorded Ratio OD(Variant)/OD(WT) for every entry that follows.
ASSAY_SYSTEM: HRgpA-6H (Porphyromonas gingivalis) (UniProt P28784)
EXPERIMENTAL_PROTOCOL: ELISA on coated HRgpA-6H

[Q] Which Ratio OD(Variant)/OD(WT) is listed for KB001 mouse Fab FASEBA VH G99Y (Fab, V domains shown) VH: EVQLKQSGPGLVAPSQSLSITCTVSGFSLSIYSVHWVRQPPGKGLEWLGMIWGGGSSDYNSALKSRLSISKDNSKSQVFLKMNSLQTDDTAMYYCARNYNFYAMDYWGQGTSVTVSS VL: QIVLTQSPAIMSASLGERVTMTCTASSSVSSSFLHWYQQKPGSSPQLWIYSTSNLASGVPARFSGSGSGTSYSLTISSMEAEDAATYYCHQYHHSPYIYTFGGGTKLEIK ?
[A] 1.05

[Q] # input binder: KB001 mouse Fab FASEBA VH Y59R (Fab, V domains shown) VH: EVQLKQSGPGLVAPSQSLSITCTVSGFSLSIYSVHWVRQPPGKGLEWLGMIWGGGSSDRNSALKSRLSISKDNSKSQVFLKMNSLQTDDTAMYYCARNGNFYAMDYWGQGTSVTVSS VL: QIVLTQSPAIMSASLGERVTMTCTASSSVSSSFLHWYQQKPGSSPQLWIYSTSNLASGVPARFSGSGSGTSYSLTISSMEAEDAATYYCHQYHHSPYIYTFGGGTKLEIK ; wanted: its Ratio OD(Variant)/OD(WT)
[A] 0.8

[Q] If you can, please state the reported Ratio OD(Variant)/OD(WT) value of KB001 mouse Fab FASEBA VH S30L (Fab, V domains shown) VH: EVQLKQSGPGLVAPSQSLSITCTVSGFSLLIYSVHWVRQPPGKGLEWLGMIWGGGSSDYNSALKSRLSISKDNSKSQVFLKMNSLQTDDTAMYYCARNGNFYAMDYWGQGTSVTVSS VL: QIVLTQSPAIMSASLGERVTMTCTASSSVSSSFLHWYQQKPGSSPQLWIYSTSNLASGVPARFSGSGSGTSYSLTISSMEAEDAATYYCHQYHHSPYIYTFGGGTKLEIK .
[A] 0.928

[Q] # Ratio OD(Variant)/OD(WT) lookup, item KB001 mouse Fab FASEBA VH I31F (Fab, V domains shown) VH: EVQLKQSGPGLVAPSQSLSITCTVSGFSLSFYSVHWVRQPPGKGLEWLGMIWGGGSSDYNSALKSRLSISKDNSKSQVFLKMNSLQTDDTAMYYCARNGNFYAMDYWGQGTSVTVSS VL: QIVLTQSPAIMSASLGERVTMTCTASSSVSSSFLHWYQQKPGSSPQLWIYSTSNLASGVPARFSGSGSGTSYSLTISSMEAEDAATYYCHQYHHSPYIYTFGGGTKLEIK
[A] 0.892

[Q] Item KB001 mouse Fab FASEBA VH S61K (Fab, V domains shown) VH: EVQLKQSGPGLVAPSQSLSITCTVSGFSLSIYSVHWVRQPPGKGLEWLGMIWGGGSSDYNKALKSRLSISKDNSKSQVFLKMNSLQTDDTAMYYCARNGNFYAMDYWGQGTSVTVSS VL: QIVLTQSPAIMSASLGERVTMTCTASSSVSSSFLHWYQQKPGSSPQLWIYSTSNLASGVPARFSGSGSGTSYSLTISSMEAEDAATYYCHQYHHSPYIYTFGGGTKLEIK has what recorded Ratio OD(Variant)/OD(WT)?
[A] 0.993
